Tested on: MAP2K1 (rabbit)
Assay: radiometric filter-binding kinase assay
Conditions: compound 10.0 µM; ATP 100 µM; accession and sequence are those of the human protein
# reported residual activity; entries follow

Completed entries (count: 6):
molecularString	result
CN(C)S(=O)(=O)c1ccc2c(c1)/C(=C/c1cc3c([nH]1)CCCC3)C(=O)N2	82%
O=C1c2ccccc2-c2n[nH]c3cccc1c23	89%
O=C(O[C@@H]1Cc2c(O)cc(O)cc2O[C@@H]1c1cc(O)c(O)c(O)c1)c1cc(O)c(O)c(O)c1	94%
CC(C)[C@H](CO)Nc1nc(Nc2cccc(Cl)c2)c2ncn(C(C)C)c2n1	80%
CC(C)(C)n1nc(-c2ccc(Cl)cc2)c2c(N)ncnc21	55%
COC(=O)[C@@]1(OC)C[C@@H]2O[C@]1(C)n1c3ccccc3c3c4c(c5c6ccccc6n2c5c31)C(=O)N(C)C4	99%

# residual activity of Nc1ncnc2c1cnn2-c1ccccc1 = 89%

# residual activity of Cc1ccc(-c2nn(C(C)(C)C)c3ncnc(N)c23)cc1 = 52%

# residual activity of O=C1Nc2ccccc2/C1=C1\Nc2ccccc2\C1=N/O = 94%

# residual activity of O=C1Cc2c([nH]c3ccc(Br)cc23)-c2ccccc2N1 = 103%

# residual activity of CC[C@@H](CO)Nc1nc(NCc2ccccc2)c2ncn(C(C)C)c2n1 = 93%

# residual activity of O=C1Cc2c([nH]c3ccc([N+](=O)[O-])cc23)-c2ccccc2N1 = 96%

----------
Biological target: UniProt P41240
Sequence (P41240 whole entry, looked up): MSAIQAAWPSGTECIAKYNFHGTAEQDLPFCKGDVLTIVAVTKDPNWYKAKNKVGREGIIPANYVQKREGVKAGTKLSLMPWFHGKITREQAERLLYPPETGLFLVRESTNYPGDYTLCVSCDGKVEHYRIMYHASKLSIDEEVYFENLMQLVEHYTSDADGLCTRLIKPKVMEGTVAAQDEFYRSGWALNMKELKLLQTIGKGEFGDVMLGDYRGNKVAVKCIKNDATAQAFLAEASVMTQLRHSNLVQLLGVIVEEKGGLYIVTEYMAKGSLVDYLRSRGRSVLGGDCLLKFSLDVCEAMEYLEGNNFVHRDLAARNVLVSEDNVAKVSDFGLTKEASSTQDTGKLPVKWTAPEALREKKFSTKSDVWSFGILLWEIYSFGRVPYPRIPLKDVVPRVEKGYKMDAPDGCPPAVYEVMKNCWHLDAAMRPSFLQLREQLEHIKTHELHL
assayReadout: IC50
Report field: quantity (unit follows the number).

# IC50 of Cc1ccc(-c2nn(C(C)(C)C)c3ncnc(N)c23)cc1 = 520 nM

----------
Target: MAPKAPK5 (human) (UniProt Q8IW41)
Sequence (Q8IW41 whole entry, looked up): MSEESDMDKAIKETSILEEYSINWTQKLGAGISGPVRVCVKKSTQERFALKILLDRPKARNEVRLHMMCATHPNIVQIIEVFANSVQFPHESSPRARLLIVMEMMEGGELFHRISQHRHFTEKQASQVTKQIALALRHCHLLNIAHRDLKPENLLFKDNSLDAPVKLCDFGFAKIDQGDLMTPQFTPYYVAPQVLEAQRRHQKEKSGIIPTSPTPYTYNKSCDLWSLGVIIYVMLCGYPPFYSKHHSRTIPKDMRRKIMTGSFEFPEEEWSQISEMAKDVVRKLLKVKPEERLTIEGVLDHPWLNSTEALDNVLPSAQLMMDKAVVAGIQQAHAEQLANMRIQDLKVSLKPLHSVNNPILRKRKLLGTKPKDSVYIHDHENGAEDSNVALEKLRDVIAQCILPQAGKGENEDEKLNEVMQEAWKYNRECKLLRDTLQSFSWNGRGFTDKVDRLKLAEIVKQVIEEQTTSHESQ
assayReadout: IC50 (nM)
Write down the numeric answer in nM and omit the unit.

Measured IC50 for this entry O=C(O[C@@H]1Cc2c(O)cc(O)cc2O[C@@H]1c1cc(O)c(O)c(O)c1)c1cc(O)c(O)c(O)c1 on MAPKAPK5 (human) (UniProt Q8IW41): 1000

----------
Target: LCK (human)
assayReadout: pIC50
Notebook: values listed as pIC50 are -log10 of the concentration (mol/L).

# pIC50 of O=C1Nc2ccccc2/C1=C1\Nc2ccccc2\C1=N/O = 6.52

----------
Test system: PHKG1 or PHKG2 (rabbit)
Test: radiometric filter-binding kinase assay
Details: compound 10.0 µM; ATP 100 µM; accession and sequence are those of the human protein
# reported residual activity; entries follow
Write down the numeric answer in % and omit the unit.

Completed entries (count: 6):
molecularString	residual activity (%)
O=C(O[C@@H]1Cc2c(O)cc(O)cc2O[C@@H]1c1cc(O)c(O)c(O)c1)c1cc(O)c(O)c(O)c1	78
O=C1Cc2c([nH]c3ccc([N+](=O)[O-])cc23)-c2ccccc2N1	77
Cc1ccc(-c2nn(C(C)(C)C)c3ncnc(N)c23)cc1	70
O=C1c2ccccc2-c2n[nH]c3cccc1c23	34
CN(C)S(=O)(=O)c1ccc2c(c1)/C(=C/c1cc3c([nH]1)CCCC3)C(=O)N2	21
CC(C)[C@H](CO)Nc1nc(Nc2cccc(Cl)c2)c2ncn(C(C)C)c2n1	36

# residual activity of O=C1Nc2ccccc2/C1=C1\Nc2ccccc2\C1=N/O = 102

# residual activity of O=C1Cc2c([nH]c3ccc(Br)cc23)-c2ccccc2N1 = 110

# residual activity of CC[C@@H](CO)Nc1nc(NCc2ccccc2)c2ncn(C(C)C)c2n1 = 80

# residual activity of Nc1ncnc2c1cnn2-c1ccccc1 = 99

# residual activity of CC(C)(C)n1nc(-c2ccc(Cl)cc2)c2c(N)ncnc21 = 93

# residual activity of COC(=O)[C@@]1(OC)C[C@@H]2O[C@]1(C)n1c3ccccc3c3c4c(c5c6ccccc6n2c5c31)C(=O)N(C)C4 = 99
